assay: differential killing of epithelial or mesenchymal cells, primary screen, imaging, PC-3E GFP, TEM4-18 mCherry, co-culture (AID 1345086); details: imaging cell counts, at 1 µM, actives lie on both sides, counts scaled to control wells, 1 = unselective;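 note: normalised mesenchymal count divided by normalised epithelial count so high means epithelial killing; cells exposed to compound for 72 h before imaging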
Square brackets hold non-standard residues; d marks the D form. Side chains are listed from the residue outwards. Peptide text beside a SMILES is read from it. * marks the point of attachment. X2 = CCC(C)C(N)C1=NC(C(=O)*)CS1; Orn = NCCC[CH](N)C(=O)O
red/green cell ratio (normalised) overview
endpoint: red/green cell ratio (normalised)

* CCC(C)C(N)C1=NC(C(=O)NC(CC(C)C)C(=O)NC(CCC(=O)O)C(=O)NC(C(=O)NCCCCC2NC(=O)C(CC(N)=O)NC(=O)C(CC(=O)O)NC(=O)C(Cc3cnc[nH]3)NC(=O)C(Cc3ccccc3)NC(=O)C(C(C)CC)NC(=O)C(CCCN)NC2=O)C(C)CC)CS1 (stereo not drawn) (cyclo(DNK([Ile-Glu-Leu-X2])[Orn]IFH); configuration not given here) | 0.87
* CC(=O)OCC1O[C@H](Sc2ccc(C)cc2)[C@@H]2[C@@H](OC(=O)N2Cc2ccccc2)C1OC(C)=O (stereo partly drawn) | 0.83
* O=C1C[C@@H]2[C@H](Br)[C@@H](O)C[C@@H]2O1 | 0.73
